Experimental Target: T1, human CD47 (human, UniProt Q08722 19-139, limits assumed, biotinylated in the ELISAs (site not stated))
T1 construct: also called biotinylated CD47; CD47 receptor
T1 sequence (Q08722 19-139 limits assumed): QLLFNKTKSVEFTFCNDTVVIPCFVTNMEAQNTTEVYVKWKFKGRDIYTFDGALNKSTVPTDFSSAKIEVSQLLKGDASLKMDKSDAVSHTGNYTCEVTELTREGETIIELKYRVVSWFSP
Procedure Text: SPR (BIACORE)
Each record here notes measured kon.
Write the answer as a number in M⁻¹ s⁻¹, unit excluded.

Consider the reported kon for these binders:
# Binder, Unit String, kon
records = [
    ("C47A8 (antibody, V domains shown, also called CD47A8) VH: QVQLVQSGAEVKKPGASVKVSCKASGYTFTSYYMHWVRQAPGQGLEWMGIINPSGGSTSYAQKFQGRVTMTRDTSTSTVYMELSSLRSEDTAVYYCARSTLWFSEFDYWGQGTLVTVSS VL: QSVLTQPSSVSASPGQSITISCSGTSSDVGGHNYVSWYQQHPGKAPKLMIYDVTKRPSGVPDRFSGSKSGNTASLTVSGLQAEDEADYYCCSYAGSRVYVFGTGTKLTVL", "M⁻¹ s⁻¹", 576000),
    ("C47B10 (antibody, V domains shown, lambda light chain (captured with anti-human lambda); also called CD47B10) VH: QVQLVQSGAEVKKPGASVKVSCKASGYTFTSYYMHWVRQAPGQGLEWMGIINPSGGSTSYAQKFQGRVTMTRDTSTSTVYMELSSLRSEDTAVYYCARSTLWFSEFDYWGQGTLVTVSS VL: QSVLTQPASVSGSPGQSISISCTGTSSDVGGHNYVSWYQQHPGKAPKLMIYDVRNRPSGVSNRFSGSKSGSTASLTISGLQTEDEADYYCNSYTGSRTYVFGSGTKLTVL", "M⁻¹ s⁻¹", 106000),
    ("C47A8-CS (antibody, V domains shown) VH: QVQLVQSGAEVKKPGASVKVSCKASGYTFTSYYMHWVRQAPGQGLEWMGIINPSGGSTSYAQKFQGRVTMTRDTSTSTVYMELSSLRSEDTAVYYCARSTLWFSEFDYWGQGTLVTVSS VL: QSVLTQPSSVSASPGQSITISCSGTSSDVGGHNYVSWYQQHPGKAPKLMIYDVTKRPSGVPDRFSGSKSGNTASLTVSGLQAEDEADYYCSSYAGSRVYVFGTGTKLTVL", "M⁻¹ s⁻¹", 215000),
]

With those in mind, consider the next binder.
Query block: Which kon is listed for C47A8-CQ (antibody, V domains shown) VH: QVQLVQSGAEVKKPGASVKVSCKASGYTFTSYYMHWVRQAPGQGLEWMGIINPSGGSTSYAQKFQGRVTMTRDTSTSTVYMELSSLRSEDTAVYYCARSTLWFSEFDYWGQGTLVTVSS VL: QSVLTQPSSVSASPGQSITISCSGTSSDVGGHNYVSWYQQHPGKAPKLMIYDVTKRPSGVPDRFSGSKSGNTASLTVSGLQAEDEADYYCQSYAGSRVYVFGTGTKLTVL ?
Result block: 129000
